All values here come from the supplement of paper PMC9170038.

Recorded measurements of apparent KD of MS2 coat protein, one per entry
Test system: MS2 coat protein
run-description: apparent KD of MS2 coat protein; designed switch direction (-1 OFF switch, 1 ON switch): -1; higher = weaker reporter binding
stated-conditions: input ligand: FMN 200 uM
# unit: nM | format: bare number

Solved entries:
| input-sequence | target-system | apparent KD of MS2 coat protein [nM] |
| --- | --- | --- |
| GCAGCAUAUGUAGGAUAUCUGCACGUUUAGUGCAGAGAAGGACAUGAGGAUCACCCAUGUAAUUAAGAUCAAUUAUUAAGCUGC [ENG1/4-A2] (Eterna round: R96, puzzle: Exclusion NG 1) | MS2 coat protein | 42.5 |
| AAGAAGAUAGGAUAUACGAGGAGAGGAGAGAAGAGGUGAGGACAUGAGGAUCACCCAUGUAGAAGGAUCAGGAA [JR_Exclu2_Sub063] (Eterna round: R96, puzzle: Exclusion 2) | MS2 coat protein | 169 |
| GCCUCACUUGAGGAUCACCCAAGUCAGGAUAUCUACAAGCCGGCCAUGCCAGCUUGCAAGAGAAGGGACUCUAA [Diazale] (Eterna round: R97, puzzle: Exclusion 1) | MS2 coat protein | 205 |
| CUGUAGUCAGGAUAUACAUGAGGAUCACCCAUGUAAAAUUUUAAUUUAAUUUGAAGGUGUAGAAGGGACCAGUC [Ex3 #26] (Eterna round: R97, puzzle: Exclusion 3) | MS2 coat protein | 30.1 |

Now consider the entry below.
**Query** Given the sequence GCAGCAUAGUUUACUAACUGUUACAUGAGGAUCACCCAUGUUGAGGAUAUGGUCUGGAUUACAGGCCAGAAGGCGACAAGCUGC [Eli exng3 - 028] (Eterna round: R96, puzzle: Exclusion NG 3) , what is its reported apparent KD of MS2 coat protein?
**Result** 18.1
